- tested_on: T1, Human Claudin-18.2 protein (human, UniProt P56856-2 1-261, limits assumed)
- T1 construct: Soluble analyte injected over captured antibodies in SPR
- experiment_notes: SPR (Biacore 8K), antibody captured on Protein A, Claudin-18.2 protein as analyte
parameter: kon (M⁻¹ s⁻¹)
Just the number in M⁻¹ s⁻¹, nothing appended.

What measured kon goes with 5-mIgG2aFc (Fc fusion, Fusion antibody anti-Claudin18.2 VHH-mIgG2aFc; also called 5-mIgG Fc; 5-mlgG2a Fc; not shown: mouse IgG2a Fc (mIgG2aFc)) QVQLVESGGGLVQTGGSLRLSCAASDSTFSSYIMGWFRQAPGKEREFVAGITWSGGIKDYADSVKGRFTIARDNAKNTVYLQMNSLKPEDAAIYYCAANAIQLTRRSGDYAYWGQGTQVTVSS ?
123000

Suppose we examine the binder 5H1-mIgG Fc (Fc fusion, Subclass printed only as mIgG Fc for this one; also called 5H1-mlgG Fc; H1-mlgG Fc; not shown: mouse IgG Fc (printed mIgG Fc)) QVQLVESGGGLVQTGGSLRLSCAASDSTFSSYIMGWVRQAPGKGLEWVAGITWSGGIKDYADSVKGRFTIARDNAKNTVYLQMNSLKPEDAAIYYCAANAIQLTRRSGDYAYWGQGTQVTVSS ; what kon value has been reported?
76600

So what does the record say about kon for 2-mIgG2aFc (Fc fusion, Fusion antibody anti-Claudin18.2 VHH-mIgG2aFc; also called 2-mIgG Fc; 2-mlgG2a Fc; not shown: mouse IgG2a Fc (mIgG2aFc)) EVQLVESGGGLVQPGGSLRLSCAASGNILSINYMGWYRQAPGKERELVATITRGGSTNYQGNLKGRFIISGDNTKDTVYLQMNNLQPEDTAVYYCYFRINFGILGGLRDYWGQGTQVTVSS ?
471000

Consider now this further binder.
Query (binder): 5H2-mIgG2a Fc (Fc fusion, also called 5H2-mIgG Fc; 5H2-mlgG2a Fc; not shown: mouse IgG2a Fc) QVQLVESGGGLVQPGGSLRLSCAASDSTFSSYIMGWFRQAPGKGLEFVAGITWSGGIKDYADSVKGRFTIARDNSKNTLYLQMNSLRAEDAAVYYCAANAIQLTRRSGDYAYWGQGTLVTVSS ; field requested: kon
126000
